The measured values listed here are drawn from patent US20260200939A1.

Listed here: items and their measured DC50.
Measured On: BRD4 short (Homo sapiens)
Construct: endogenous in cells; host or cells: HEK293T
Assay Comment: BRD4 (short) degradation assay, Western blotting
Format: cell-based
Study Conditions: second value of cell; range with lower bound in nM and upper bound in μM

Cc1sc2c(c1C)C(c1ccc(Cl)cc1)=N[C@@H](CC(=O)N1CCN(C(=O)/C=C/C(=O)c3cccc(C#N)c3)CC1)c1nnc(C)n1-2
100 to 1000 nM
COc1ccc(NC(=O)/C=C/C(=O)N2CCN(C(=O)C[C@@H]3N=C(c4ccc(Cl)cc4)c4c(sc(C)c4C)-n4c(C)nnc43)CC2)cc1
100 to 1000 nM

Task item: Write down the reported DC50 (system: BRD4 short (Homo sapiens)) of `Cc1sc2c(c1C)C(c1ccc(Cl)cc1)=N[C@@H](CC(=O)N1CCN(C(=O)/C=C/C(=O)Nc3cccn(C)c3=O)CC1)c1nnc(C)n1-2`
Reply: 100 to 1000 nM

* * *

Measured On: BRD4 long (Homo sapiens, UniProt O60885)
Construct: endogenous in cells; host or cells: HEK293T
Assay Comment: BRD4 (long) degradation assay, Western blotting
Assay type: cell-based
Study Conditions: first value of cell (long/short)
Endpoint Name: DC50

COc1ccc(C(=O)/C=C/C(=O)N[C@H]2C[C@H](NC(=O)C[C@@H]3N=C(c4ccc(Cl)cc4)c4c(sc(C)c4C)-n4c(C)nnc43)C2)c(Cl)c1
90 nM
COc1ccc(C(=O)/C=C\C(=O)N2CCN(C(=O)C[C@@H]3N=C(c4ccc(Cl)cc4)c4c(sc(C)c4C)-n4c(C)nnc43)CC2)cc1
10 to 100 nM
COc1ccc(C(=O)/C=C/C(=O)N2CC3(CCN(C(=O)C[C@@H]4N=C(c5ccc(Cl)cc5)c5c(sc(C)c5C)-n5c(C)nnc54)CC3)C2)cc1
10 to 100 nM

Task item: Answer with the recorded DC50 of `Cc1sc2c(c1C)C(c1ccc(Cl)cc1)=N[C@@H](CC(=O)N1CCN(C(=O)/C=C/C(=O)c3ccc4c(c3)CCO4)CC1)c1nnc(C)n1-2` only.
Reply: < 100 nM

Task item: Answer with the recorded DC50 of `COc1ccccc1C(=O)/C=C/C(=O)N1CCN(C(=O)C[C@@H]2N=C(c3ccc(Cl)cc3)c3c(sc(C)c3C)-n3c(C)nnc32)CC1` only.
Reply: < 100 nM

* * *

Measured On: BRD4 long (Homo sapiens, UniProt O60885)
Construct: endogenous in cells; host or cells: HEK293T
Assay Comment: BRD4 (long) degradation assay, Western blotting
Type: cell-based
Study Conditions: first value of cell (long/short)
Endpoint Name: DC50

Solved cases below.
COc1ccc(C(=O)/C=C(\C#N)C(=O)N2CCN(C(=O)C[C@@H]3N=C(c4ccc(Cl)cc4)c4c(sc(C)c4C)-n4c(C)nnc43)CC2)cc1
> 1000 nM
COc1ccc(C(=O)/C=C/C(=O)N2CC3CCN(C(=O)C[C@@H]4N=C(c5ccc(Cl)cc5)c5c(sc(C)c5C)-n5c(C)nnc54)CC3C2)cc1 (stereo partly drawn)
< 10 nM
COc1cc(F)ccc1C(=O)/C=C/C(=O)N1CCN(C(=O)C[C@@H]2N=C(c3ccc(Cl)cc3)c3c(sc(C)c3C)-n3c(C)nnc32)CC1
< 100 nM
COc1ccc(C(=O)/C=C/C(=O)N2CCN(C(=O)C[C@@H]3N=C(c4ccc(Cl)cc4)c4c(sc(C)c4C)-n4c(C)nnc43)CC2)cc1F
< 100 nM
Cc1sc2c(c1C)C(c1ccc(Cl)cc1)=N[C@@H](CC(=O)N1CCN(C(=O)/C=C/C(=O)c3ccc4c(c3)NC(=O)CO4)CC1)c1nnc(C)n1-2
10 to 100 nM

Task item: Answer with the recorded DC50 of Cc1sc2c(c1C)C(c1ccc(Cl)cc1)=N[C@@H](CC(=O)NC1CC(NC(=O)/C=C/C(=O)N3CC4(COC4)C3)C1)c1nnc(C)n1-2 (stereo partly drawn) only.
Reply: > 5000 nM

* * *

Measured On: BRD4 long (Homo sapiens)
Construct: endogenous in cells; host or cells: HEK293T
Assay Comment: BRD4 (long) degradation assay, Western blotting
Format: cell-based
Study Conditions: first value of cell (long/short)
Listed here: items and their measured DC50.

Solved cases below.
Cc1sc2c(c1C)C(c1ccc(Cl)cc1)=N[C@@H](CC(=O)N[C@H]1C[C@H](NC(=O)/C=C/C(=O)C(C)(C)C)C1)c1nnc(C)n1-2 [Compound 278]
0.01 to 0.1 µM
COc1ccc(C(=O)/C=C/C(=O)N2CC3CCC(C2)N(C(=O)C[C@@H]2N=C(c4ccc(Cl)cc4)c4c(sc(C)c4C)-n4c(C)nnc42)C3)cc1 (stereo partly drawn) [Compound 228]
0.01 to 0.1 µM

Please find the next molecule below.
Task item: Write down the reported DC50 (system: BRD4 long (Homo sapiens)) of COc1ccc(C(=O)/C=C/C(=O)N[C@H]2C[C@H](NC(=O)C[C@@H]3N=C(c4ccc(Cl)cc4)c4c(sc(C)c4C)-n4c(C)nnc43)C2)cc1F [Compound 236]
Reply: 0.09 µM

* * *

Measured On: BRD4 short (Homo sapiens, UniProt O60885)
Construct: endogenous in cells; host or cells: HEK293T
Assay Comment: BRD4 (short) degradation assay, Western blotting
Format: cell-based
Study Conditions: second value of cell (long/short)
Endpoint Name: DC50

Solved cases below.
Cc1sc2c(c1C)C(c1ccc(Cl)cc1)=N[C@@H](CC(=O)N[C@H]1C[C@H](NC(=O)/C=C/C(=O)C(C)(C)C)C1)c1nnc(C)n1-2 [Compound 278]
10 to 100 nM
Cc1sc2c(c1C)C(c1ccc(Cl)cc1)=N[C@@H](CC(=O)N1CCN(C(=O)/C=C/C(=O)c3ccccc3)CC1)c1nnc(C)n1-2 [Compound 140]
< 100 nM
COc1cccc(C(=O)/C=C/C(=O)N2CCN(C(=O)C[C@@H]3N=C(c4ccc(Cl)cc4)c4c(sc(C)c4C)-n4c(C)nnc43)CC2)c1 [Compound 143]
< 100 nM

Task item: Answer with the recorded DC50 of COc1ccc(C(=O)/C=C(\C)C(=O)N2CCN(C(=O)C[C@@H]3N=C(c4ccc(Cl)cc4)c4c(sc(C)c4C)-n4c(C)nnc43)CC2)cc1 [Compound 141] only.
Reply: > 1000 nM

* * *

Measured On: BRD4 long (Homo sapiens, UniProt O60885)
Construct: endogenous in cells; host or cells: HEK293T
Assay Comment: BRD4 (long) degradation assay, Western blotting
Assay type: cell-based
Study Conditions: first value of cell (long/short)
Endpoint Name: DC50

Solved cases below.
Cc1sc2c(c1C)C(c1ccc(Cl)cc1)=N[C@@H](CC(=O)N[C@H]1C[C@@H](NC(=O)/C=C/C(=O)N3CCOCC3)C1)c1nnc(C)n1-2
> 5000 nM
COc1ccc(C(=O)/C=C/C(=O)N2CCN(C(=O)C[C@@H]3N=C(c4ccc(Cl)cc4)c4c(sc(C)c4C)-n4c(C)nnc43)CC23CC3)cc1
10 to 100 nM

Task item: Answer with the recorded DC50 of `COc1ccc2c(c1)CCCN2C(=O)/C=C/C(=O)N1CCN(C(=O)C[C@@H]2N=C(c3ccc(Cl)cc3)c3c(sc(C)c3C)-n3c(C)nnc32)CC1` only.
Reply: > 5000 nM

Task item: Answer with the recorded DC50 of COc1ccc(C(=O)/C=C/C(=O)N2CC3CN(C(=O)C[C@@H]4N=C(c5ccc(Cl)cc5)c5c(sc(C)c5C)-n5c(C)nnc54)CC3C2)cc1 (stereo partly drawn) only.
Reply: 10 to 100 nM

Task item: Answer with the recorded DC50 of `Cc1sc2c(c1C)C(c1ccc(Cl)cc1)=N[C@@H](CC(=O)N1CCN(C(=O)/C=C/C(=O)c3ccc4c(c3)OCC4)CC1)c1nnc(C)n1-2` only.
Reply: < 10 nM

Task item: Answer with the recorded DC50 of `COc1ccc(C(=O)/C=C(\C)C(=O)N2CCN(C(=O)C[C@@H]3N=C(c4ccc(Cl)cc4)c4c(sc(C)c4C)-n4c(C)nnc43)CC2)cc1` only.
Reply: > 1000 nM

* * *

Measured On: Recombinant RNF126 (Homo sapiens, UniProt Q9BV68)
Construct: FLAG (C); host or cells: HEK293T
Sequence (Q9BV68 whole entry): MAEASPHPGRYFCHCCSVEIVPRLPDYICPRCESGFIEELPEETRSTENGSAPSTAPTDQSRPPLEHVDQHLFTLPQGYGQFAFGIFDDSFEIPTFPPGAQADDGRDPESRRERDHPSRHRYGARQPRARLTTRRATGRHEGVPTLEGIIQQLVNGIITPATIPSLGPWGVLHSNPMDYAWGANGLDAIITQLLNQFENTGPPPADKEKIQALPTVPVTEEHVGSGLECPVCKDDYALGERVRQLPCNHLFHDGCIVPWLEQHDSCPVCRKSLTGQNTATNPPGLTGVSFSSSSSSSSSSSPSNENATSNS
Assay Comment: RNF126 Binding Assay, gel-based ABPP
Study Conditions: range with lower bound in nM and upper bound in μM
Procedure: RNF126 mammalian expression plasmid with a C-terminal FLAG tag was purchased from Origene (Origene Technologies Inc., RC204986). The plasmid was transformed into NEB 5-alpha Competent E. coli (DH5) cells (NEB product no. C2987H). […] HEK293T cells were grown to 30-50% confluency in DMEM supplemented with 10% FBS (Corning) and maintained at 37° C. with 5% CO2. […] Concentration and purity was determined using the BCA assay and western blotting. […]
Endpoint Name: IC50

Task item: Write down the reported IC50 (system: Recombinant RNF126 (Homo sapiens, UniProt Q9BV68)) of `CC(C)(C)OC(=O)N1CCN(C(=O)/C=C/C(=O)c2ccccc2Cl)CC1`
Reply: 100 to 1000 nM

Task item: Write down the reported IC50 (system: Recombinant RNF126 (Homo sapiens, UniProt Q9BV68)) of `C#CCCCCC(=O)N1CCN(C(=O)/C=C/C(=O)c2ccc(OC)cc2)CC1`
Reply: 100 to 1000 nM

Task item: Write down the reported IC50 (system: Recombinant RNF126 (Homo sapiens, UniProt Q9BV68)) of `COc1ccc(C(=O)/C=C/C(=O)N2CCN(C(=O)OC(C)(C)C)CC2)c(Cl)c1`
Reply: 100 to 1000 nM

Task item: Write down the reported IC50 (system: Recombinant RNF126 (Homo sapiens, UniProt Q9BV68)) of `Cc1ccc(C(=O)/C=C/C(=O)N2CCN(C(=O)OC(C)(C)C)CC2)cc1`
Reply: 100 to 1000 nM

Task item: Write down the reported IC50 (system: Recombinant RNF126 (Homo sapiens, UniProt Q9BV68)) of `O=C(/C=C/C(=O)N1CCNCC1)c1ccccc1`
Reply: 100 to 1000 nM

Task item: Write down the reported IC50 (system: Recombinant RNF126 (Homo sapiens, UniProt Q9BV68)) of `CC(C)(C)OC(=O)N1CCN(C(=O)/C=C/C(=O)c2ccccc2Br)CC1`
Reply: 100 to 1000 nM

Task item: Write down the reported IC50 (system: Recombinant RNF126 (Homo sapiens, UniProt Q9BV68)) of `CC(C)(C)OC(=O)N1CCN(C(=O)/C=C/C(=O)c2cccc(F)c2)CC1`
Reply: 100 to 1000 nM

Task item: Write down the reported IC50 (system: Recombinant RNF126 (Homo sapiens, UniProt Q9BV68)) of `COc1cc(F)ccc1C(=O)/C=C/C(=O)N1CCN(C(=O)OC(C)(C)C)CC1`
Reply: 100 to 1000 nM
